Entry source: PubChem BioAssay (NCI)

Test system: SK-OV-3 ovarian
experiment-summary: NCI-60 one-dose screen, 48 h
experimental-setup: 10 µM unless noted
About 83,000 compounds went through this panel and 20% of them were active in at least one assay; those are over-represented in the sample as a whole. The source made the active and inactive calls. How the source made its calls: active means growth percent below 10; inactive means the rest.
Pick one: active, inactive

Problem: Hey, what did the test say about "CC(=O)[C@@H]1CC[C@]2(C(=O)O)CC[C@]3(C)[C@H](CC[C@@H]4[C@@]5(C)Cc6c([nH]c7ccccc67)C(C)(C)[C@@H]5CC[C@]43C)[C@@H]12" ?
Result: inactive

Problem: Query: recorded result category for "Nn1c(SCC(=O)Nc2ccc(Cl)cc2)nnc1-c1cc(F)c(Cl)cc1Cl" in this test
Result: inactive

Problem: Which result was noted for this compound in the test: "O=C1C(=O)c2c(nc3ccc(C(F)(F)F)cn23)-c2ccccc21"
Result: active

Problem: I would be grateful if you could indicate the recorded call for "CC(=O)Nc1ccc2c(c1)Cc1cc(F)ccc1-2" .
Result: inactive

Problem: Would you mind telling me which call this test gave "C/C(=C\c1cnc(C)s1)[C@@H]1C[C@@H]2O[C@@H]2CCC[C@H](C)[C@H](O)[C@@H](C)C(=O)C(C)(C)[C@@H](O)CC(=O)O1" ?
Result: inactive

Problem: What is the recorded call for this compound in the test? "O=C(O)c1cc(N=Nc2ccc(-c3ccc(N=Nc4c(S(=O)(=O)O)cc5ccc(Nc6ccccc6)cc5c4O)cc3)cc2)ccc1O"
Result: inactive

Problem: Name the outcome recorded for "CCCCc1n(Cc2ccc3ccccc3n2)cc[n+]1Cc1ccc2ccccc2c1" in the assay.
Result: active

Problem: Called result for CCN(CC)c1ccc2c(c1)Oc1nc(N)c(C#N)c(N)c1C2Sc1ccc(OC)cc1 (centres undefined)
Result: inactive

Problem: Hi, sorry to bother you, what did the test record for CCOc1ccc(C2N(c3cc(OC)c(OC)c(OC)c3)C(=O)C2(F)F)cc1 (centres undefined) ?
Result: inactive

Problem: For "COc1ccc2[nH]c(=O)c(/C=C/C(=O)c3ccccc3OC)cc2c1" , what call appears in the results of this test?
Result: active

Problem: Which result was noted for this compound in the test: CCCCN(CCCC)CC(CN(CC)CC)OC(=O)Nc1ccccc1 (centres undefined)
Result: inactive

Problem: Kindly provide the recorded test outcome for the following compound: CCCCc1nc(Cl)c(C2CC(c3ccc(Cl)cc3)=NN2c2cc(Cl)cc(Cl)c2)[nH]1 (centres undefined)
Result: inactive

Problem: How was "Fc1ccc(N/N=C/c2ccc(-n3cccn3)cc2)cc1" classified in this test?
Result: inactive

Problem: Tell me the assay call for CCOC(=O)NC(Cc1ccccc1)c1ccccc1 (centres undefined) please.
Result: inactive

Problem: Kindly provide the recorded test outcome for the following compound: "CCOC(=O)C1CCN(S(=O)(=O)/N=C2/NC(=O)NC2=C(Cl)Cl)CC1"
Result: inactive

Problem: Per the assay record, what outcome was assigned to O=C1NN(c2ccccc2)C(c2ccc3c(c2)OCO3)N2CCC[C@@H]12 (some centres undefined) ?
Result: inactive

Problem: Tell me the assay call for "NC(=O)c1ccc2nc3c(n2c1)C(=O)C(=O)c1ccccc1-3" please.
Result: active

Problem: Field: outcome | Entry: "C=C(C)[C@@H]1CC[C@]2(C(=O)n3ccnc3)CC[C@]3(C)[C@H](CC[C@@H]4[C@@]5(C)CCCNC(C)(C)[C@@H]5CC[C@]43C)[C@@H]12"
Result: inactive

Problem: Which result was noted for this compound in the test: "CSc1cccc(NC(=O)Nc2nc3c(C)cccc3s2)c1"
Result: inactive

* * *

Tested on: T-47D breast
experiment-summary: NCI-60 one-dose screen, 48 h
experimental-setup: 10 µM unless noted
The panel holds about 83,000 compounds, 20% with a hit somewhere; the sample as a whole holds those more often. Activity calls are given as the source filed them. The calls were made as follows: active = growth percent below 10; inactive = the rest.
Please answer using one outcome listed in yes (active), no (inactive)

Problem: Each compound tested received a call. Report the one for "COc1ccccc1C(=O)/C=C/c1cc2cccc(OC)c2[nH]c1=O" .
Result: no

Problem: # outcome recorded in this test, key = "COc1ccccc1-c1ccc2nc(NC(=O)Nc3cc(C(F)(F)F)cc(C(F)(F)F)c3)sc2c1"
Result: yes

Problem: In this assay, the call recorded for "CCCCc1ccc(N=Nc2ccc(OCC[N+](C)(C)C)cc2)cc1" was what?
Result: no

Problem: Which result was noted for this compound in the test: "N#Cc1c(-c2ccc(F)cc2)c(C#N)c2c(C#N)c(N)nn2c1N"
Result: no

Problem: Kindly provide the recorded test outcome for the following compound: "N#CCNc1ccc(C(=O)O)cc1"
Result: no

Problem: Hello, I am checking results. What call was entered for CCCCc1nc(Cl)c(C2CC(c3ccc(Cl)cc3)=NN2c2cc(Cl)cc(Cl)c2)[nH]1 (stereo not given) ?
Result: no

Problem: Field: outcome | Entry: "Clc1ccc2c(NCCCNC3CCCCC3)ccnc2c1"
Result: no

Problem: I'd appreciate the recorded outcome for "O=C(Nc1ccc2ncnc(Nc3ccc(F)c(Cl)c3)c2c1)c1ccccc1" from this test.
Result: no

Problem: Check the results log: what was the call for CN(C)C(CNc1oc(-c2cccc3ccccc23)nc1C#N)c1ccco1 (stereo not given) ?
Result: no

Problem: Which outcome did this test record for the compound "C=C1C(=O)O[C@H]2[C@H]1CC/C(COC(=O)CCCCCCCC(=O)OC/C1=C/CC[C@@]3(C)O[C@H]3[C@H]3OC(=O)C(=C)[C@@H]3CC1)=C\CC[C@@]1(C)O[C@@H]21" ?
Result: yes

Problem: What was the test verdict on "CCOC(=O)c1c(C(F)(F)F)n([O-])c2ccc(Cl)cc2[n+]1=O" ?
Result: yes

Problem: Hello, I am checking results. What call was entered for O=C1CCC23OC(c4ccccc4N12)C(O)C(O)C3O (stereo not given) ?
Result: no

Problem: Would you mind telling me which call this test gave "CC(C)(C)c1ccc(O)c(Cc2cc(C(C)(C)C)ccc2O)c1" ?
Result: no

Problem: What is the recorded call for this compound in the test? "c1ccc2nc(N3CCOCC3)c(N3CCCCC3)nc2c1"
Result: no

Problem: Record request — test call for "COc1ccc2nc3c(n2c1)C(=O)C(=O)c1ccccc1-3"
Result: no

Problem: Tell me the assay call for CCOc1ccc(C2N(c3cc(OC)c(OC)c(OC)c3)C(=O)C2(F)F)cc1 (stereo not given) please.
Result: no

Problem: Called result for "O=C(/C(=C\c1c(-c2ccccc2)[nH]c2ccccc12)S(=O)(=O)c1ccccc1)c1ccccc1"
Result: no

Problem: Recorded test call requested for "O=C(O)COc1ccc2c(=O)c3sc4c(=O)c5ccccc5c(=O)c4c3c(=O)c2c1"
Result: no

Problem: # lookup: test call for "C[C@H]1[C@H](C)CC[C@]2(C(=O)OCCOCCOCC[P+](c3ccccc3)(c3ccccc3)c3ccccc3)CC[C@]3(C)C(=CC[C@@H]4[C@@]5(C)CC[C@H](OC(=O)C(Cl)Cl)C(C)(C)[C@@H]5CC[C@]43C)[C@H]12"
Result: no

Problem: Each compound tested received a call. Report the one for CCOC(=O)C1=C(C)n2nc(CC#N)c(C#N)c2NC1c1ccc(CC)cc1 (stereo not given) .
Result: no

Problem: Test call, this compound: "c1ccc(-c2cn3ccnc3c(-c3ccc4c(c3)ncn4C3CCCCC3)n2)cc1"
Result: no

Problem: Status in this test for "COc1ccc(Cc2nc(C#N)c(N3CCN(c4ccc(F)cc4)CC3)o2)cc1" ?
Result: no

Problem: # outcome recorded in this test, key = "COc1cc(C)ccc1Oc1nc(Nc2ccc(N3CCOCC3)cc2)ncc1N=Cc1cc(C(F)(F)F)cc(C(F)(F)F)c1"
Result: no

Problem: Status in this test for "COc1ccc2oc(=O)cc(-c3c(C#N)c(N)n4nc(N)c(C#N)c4c3C#N)c2c1" ?
Result: no

Problem: Name the outcome recorded for "COc1ccc2nc3nc4ccc[nH]c4cc3c2c1" in the assay.
Result: no

Problem: Kindly provide the recorded test outcome for the following compound: "Oc1ccccc1-c1nc2c3ccccc3c3ccccc3c2o1"
Result: no

Problem: // param item: "O=C1CCc2ccccc2N1" ; yields the recorded call
Result: no

Problem: Entry COc1ccc2c(c1)C1(C(=O)N2)C(C#N)=C(c2ccccc2)Nc2c1c(-c1ccccc1)nn2-c1ccccc1 (stereo not given) : call = ?
Result: no

Problem: What call does the record list for "COc1ccc(/C=C/C(=O)Nc2ncnc3nc[nH]c23)cc1" ?
Result: no

Problem: Check the results log: what was the call for "COc1ccc(-n2nc(C(=O)NCC(=O)O)nc2-c2ccccc2)cc1" ?
Result: no

Problem: Each compound tested received a call. Report the one for "CC(C)NS(=O)(=O)c1cccc(-c2ccc3c4c(n(CCCN(C)C)c(=O)c3c2)-c2ccccc2C4=O)c1" .
Result: no

Problem: Could you check what this test reported for "O=C(O)c1cc(N=Nc2ccc(-c3ccc(N=Nc4c(S(=O)(=O)O)cc5ccc(Nc6ccccc6)cc5c4O)cc3)cc2)ccc1O" ?
Result: no

Problem: Dear colleague, could you share the recorded outcome for "Nc1ccccc1NC(=O)c1ccc(CSc2nc(N3CCOCC3)c3cccn3n2)cc1" when you have a moment?
Result: yes

Problem: Hi, do you know how N#CC1C(c2ccc(Cl)cc2)=Nc2c(c(-c3ccccc3)nn2-c2ccccc2)C12C(=O)Nc1ccc(Cl)cc12 (stereo not given) came out in this test?
Result: no

Problem: Record lookup: outcome of this test for "C#C[C@@]1(O)[C@@H](CO)O[C@@H](n2cc(Cl)c3c(N)ccnc32)[C@@H]1O" ?
Result: no

Problem: Short answer needed: outcome of this test for "CC(=O)c1cc2c(N)c(C(=O)Nc3ccccn3)sc2nc1C" ?
Result: no

Problem: Could you kindly confirm the outcome this assay logged for "CCCCCOC(=O)c1ccccc1O" ?
Result: no

Problem: Record lookup: outcome of this test for "CN(CCC#N)C(=O)Nc1ccccc1" ?
Result: no

Problem: What classification did "Nc1ccc2c(c1)C(=O)C(=O)c1c-2nc2ccccn12" end up with in this test?
Result: yes

Problem: State the result this test recorded for O=CN1N=C(c2ccc(Cl)cc2)CC1c1cccc(Nc2ccnc3cc(C(F)(F)F)ccc23)c1 (stereo not given) .
Result: no
